Task for the reader: assign each of the following molecules its reported BChE inhibition potency compared to CD-Met.
target: human BChE (Homo sapiens); construct: gift of Dr. F. Nachon (Département de Toxicologie, Armed Forces Biomedical Research Institute, France); test: Reversible inhibition of human BChE, Ellman method with ATCh, Hunter-Downs analysis; type: biochemical; details: fold more potent than CD-Met
Sequence (P06276 29-602): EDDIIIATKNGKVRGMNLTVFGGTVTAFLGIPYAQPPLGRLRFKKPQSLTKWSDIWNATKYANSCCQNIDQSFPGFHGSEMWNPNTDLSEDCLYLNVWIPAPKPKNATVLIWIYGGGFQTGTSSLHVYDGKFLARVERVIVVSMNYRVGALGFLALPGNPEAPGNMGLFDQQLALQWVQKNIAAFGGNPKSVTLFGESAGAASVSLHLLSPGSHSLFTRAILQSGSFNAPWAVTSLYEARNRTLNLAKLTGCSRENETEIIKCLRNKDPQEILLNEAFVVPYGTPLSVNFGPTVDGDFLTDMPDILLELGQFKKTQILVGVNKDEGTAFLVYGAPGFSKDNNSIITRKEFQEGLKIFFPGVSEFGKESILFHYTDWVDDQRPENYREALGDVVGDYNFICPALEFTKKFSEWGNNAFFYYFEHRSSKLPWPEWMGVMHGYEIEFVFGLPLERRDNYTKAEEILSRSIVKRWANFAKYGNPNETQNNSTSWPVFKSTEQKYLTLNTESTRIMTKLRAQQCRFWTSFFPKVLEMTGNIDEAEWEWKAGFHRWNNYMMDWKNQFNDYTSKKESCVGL
Answers are plain numbers, in times.

C=CC1C[N+]2(Cc3cccc(Br)c3)CCC1CC2C(O)c1ccnc2ccccc12 (stereo not shown) [CD-(mBr), N-(3-bromobenzyl) cinchonidinium bromide] ... 44

Let us examine a further case.
The value of BChE inhibition potency compared to CD-Met measured for the molecule C=CC1C[N+]2(Cc3ccc(Br)cc3)CCC1CC2C(O)c1ccnc2ccccc12 (stereo not shown) turned out to be 700
